These data points were gathered from FireProtDB (doi:10.1021/bi9910169).

Listing: unfolding enthalpy (van 't Hoff) of selected variants
B1: Lysozyme C, P61626 (parent)
chain: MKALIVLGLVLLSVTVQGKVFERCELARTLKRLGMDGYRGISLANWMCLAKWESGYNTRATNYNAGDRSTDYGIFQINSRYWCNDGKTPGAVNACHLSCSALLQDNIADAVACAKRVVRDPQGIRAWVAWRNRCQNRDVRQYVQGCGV

# Variants of: B1
# ASSAY_CONDITIONS: Homo sapiens; pH 2.5; Thermal; DSC; glycine-HCl 0.05 M; reversible: yes; structure 1LZ1; whole UniProt chain shown
ASSAY_METRIC: unfolding enthalpy (van 't Hoff) (kcal/mol)

> print(dat)
   mutation.descriptor                      assay.metric  measured.number
1                 T58A  unfolding enthalpy (van 't Hoff)              103
2                 T70V  unfolding enthalpy (van 't Hoff)              104
3                 T88A  unfolding enthalpy (van 't Hoff)             99.9
4                 T88V  unfolding enthalpy (van 't Hoff)              106
5                 T58V  unfolding enthalpy (van 't Hoff)              104
